Reported values of % change of HSV-1 GFP signal for individual entries
system: HSV-1 K26-GFP infected primary human skin cells; experiment: % change of HSV-1 GFP signal vs untreated infected cells; higher = less antiviral inhibition; settings: 0.2469 µM; cell type: primary dermal fibroblasts; donor: 3; time (h post infection): 48
Please state the figure in %; there is no need to write the unit.

Examples from the recorded data:
>>> observed_measurement("O=C(Nc1ccc([N+](=O)[O-])cc1Cl)c1cc(Cl)ccc1O [Niclosamide]")
-45.2
>>> observed_measurement("Cc1nc(N(C)C(=O)Cc2ccc(-c3ccccn3)cc2)sc1S(N)(=O)=O")
-61

// query Item under review: Nc1ccn([C@@H]2O[C@H](CO)[C@@H](O)C2(F)F)c(=O)n1 . Reported % change of HSV-1 GFP signal?
// result -99.8

// query // next record COc1ccc(-c2nc(N3CCOCC3)c3sc(CN(C)c4ncc(C(=O)NO)cn4)cc3n2)cn1 [Fimepinostat]
// result 29.4

// query // next record CC1(C)CC(=O)c2c(C(F)(F)F)nn(-c3ccc(C(N)=O)c(N[C@H]4CC[C@H](O)CC4)c3)c2C1
// result -98.7

// query // next record CC(C)c1cnn2c(NCc3ccccc3-n3cccn3)nc(OC3CCCNC3)nc12 (stereo not drawn)
// result -5.39

// query // next record Cc1cccc(C)c1N(CC(=O)Nc1ccc(-c2ncon2)cc1)C(=O)C1CCS(=O)(=O)CC1
// result -63.1

// query // next record O=C(/C=C\n1cnc(-c2cc(C(F)(F)F)cc(C(F)(F)F)c2)n1)NNc1ccccn1 [Verdinexor]
// result -1.84

src = the supplement of paper PMC12533247
